System: MDA-MB-435
Experiment: NCI tumour cell line growth inhibition, 48 h
Readout kind: TGI

Known results for molecules:
Molecule	Target under test	TGI
C/C(=N/NC(=O)c1ccncc1)c1ccc(NC(=O)C(=O)Nn2c(=S)[nH]c3ccccc3c2=O)cc1	MDA-MB-435	> 100 µM
O=C(O)CN=C(C(=NCC(=O)O)c1ccccc1)c1ccccc1	MDA-MB-435	> 100 µM
C[C@@]12c3c4ccc(C=O)c3Oc3ccc(C=O)c(c31)Oc1c(C=O)ccc(c12)O4	MDA-MB-435	> 100 µM
CC(C)(C)[Si](C)(C)OCC1CCC(n2cnc3c(=O)[nH]cnc32)O1 (stereo not drawn)	MDA-MB-435	> 100 µM
CSc1c(C#N)c(O)n(-c2ccc(C)cc2)c(=O)c1C#N	MDA-MB-435	> 100 µM

The following molecules each have a reported value; give each one's TGI.
1. C=C(C)[C@@H]1C[C@H]2O[C@](O)(C(=C)CC(=O)/C=C(/C)C[C@@H]3OC(=O)[C@]24O[C@@H]34)[C@H]1O
2. COc1cc(-c2n/c(=C\c3c(O)[nH]c4ccc(Cl)cc34)cc3c2=Nc2ccccc2-3)cc(OC)c1OC
3. Cc1onc(-c2c(F)cccc2Cl)c1-c1ncc(-c2ccc(Cl)cc2)o1
4. C=C(C)[C@@H]1CC[C@]2(C)CC[C@]3(C)[C@H](CC[C@@H]4[C@@]5(C)CC[C@H](OC(=O)c6ccccc6)C(C)(C)[C@@H]5CC[C@]43C)[C@@H]12
5. COc1ccc(-c2cc(-c3ccccc3)n(C3OCC(OC(C)=O)C(OC(C)=O)C3OC(C)=O)c(=S)c2C#N)cc1 (stereo not drawn)
6. CC(=O)Nc1ccc(-c2c3nc(c(-c4cc5ccccc5[n+](C)c4)c4ccc([nH]4)c(-c4ccc(NC(C)=O)cc4)c4nc(c(-c5cc6ccccc6[n+](C)c5)c5ccc2[nH]5)C=C4)C=C3)cc1
7. COC(=O)Nc1nc2ccc(Oc3ccc4nc(NC(=O)OC)[nH]c4c3)cc2[nH]1

["> 100 µM", "5.15 µM", "> 100 µM", "> 100 µM", "> 100 µM", "30.6 µM", "0.166 µM"]

Give a short answer stating reported TGI for CCC(CS(=O)(=O)O)[N+](=O)[O-] (stereo not drawn) . > 100 µM

---

System: CCRF-CEM leukemia
Assay: NCI tumour cell line growth inhibition, 48 h; in the data active = GI50 below about 0.43 µM; inactive = the rest
Respond with a class label; see 1 (yes) (active), 0 (no) (inactive)

Please review the entries below; each comes with its answer.
CCCCN(CCCC)c1ccc(C(=N)c2ccc(N(C)C)cc2)cc1 0 (no)
CC1=CC[C@@H]2C(C)(C)C(=O)CC[C@@]2(C)[C@@H]1COc1ccc2ccc(=O)oc2c1 0 (no)
CC(=O)Nc1ccc(-c2c3nc(c(-c4cc5ccccc5[n+](C)c4)c4ccc([nH]4)c(-c4ccc(NC(C)=O)cc4)c4nc(c(-c5cc6ccccc6[n+](C)c5)c5ccc2[nH]5)C=C4)C=C3)cc1 0 (no)

Kindly provide the recorded test outcome for the following compound: Cc1onc(-c2c(F)cccc2Cl)c1-c1ncc(-c2ccc(Cl)cc2)o1 0 (no)

Entry COc1cc(-c2n/c(=C\c3c(O)[nH]c4ccc(Cl)cc34)cc3c2=Nc2ccccc2-3)cc(OC)c1OC : call = ? 0 (no)

Field: outcome | Entry: COc1ccc(C[n+]2c3ccccc3n3c4ccc(N)cc4ccc32)c(OC)c1OC 0 (no)

Query: recorded result category for O=C(/C=C/c1ccccc1)c1c[nH]c2ccccc2c1=O in this test 0 (no)
